# System: Vibrio anguillarum
# Procedure Details: In vitro antibacterial activity on pathogenic bacteria for fish (agar MIC, Test Example 1)
# Type: cell-based
# Experimental Conditions: Vibrio anguillarum strain NA8346; Mueller-Hinton agar, 20 h, 25-30 °C
Property: MIC (minimum growth-inhibition concentration); scope: individual compounds
Quick reminder: number only, in µg/mL, skip the unit.

Please review the entries below; each comes with its answer.
Compound	Assay Value
CCN1CCN(c2cc3c(cc2F)c(=O)c(C(=O)O)cn3C2CC2)CC1 [Compound E]	0.05
O=C(O)c1cn(C2CC2)c2cc(N3CCNCC3)c(F)cc2c1=O [Compound B]	0.025
CCN1CCN(c2cc3c(cc2F)c(=O)c(C(=O)O)cn3C2CC2)CC1 [Compound G]	0.05

Record CCn1cc(C(=O)O)c(=O)c2cc3c(cc21)OCO3 [Compound OA, reference compound] , field MIC (minimum growth-inhibition concentration): 0.05
